target: Histamine receptor H3 (Macaca mulatta, UniProt Q865E1); assay: Displacement of [3H]N-alpha-methylhistamine from recombinant rhesus monkey histamine H3 receptor transfected in CHO cell membranes after 1 hr by scintillation counting analysis
Sequence (Q865E1 whole entry): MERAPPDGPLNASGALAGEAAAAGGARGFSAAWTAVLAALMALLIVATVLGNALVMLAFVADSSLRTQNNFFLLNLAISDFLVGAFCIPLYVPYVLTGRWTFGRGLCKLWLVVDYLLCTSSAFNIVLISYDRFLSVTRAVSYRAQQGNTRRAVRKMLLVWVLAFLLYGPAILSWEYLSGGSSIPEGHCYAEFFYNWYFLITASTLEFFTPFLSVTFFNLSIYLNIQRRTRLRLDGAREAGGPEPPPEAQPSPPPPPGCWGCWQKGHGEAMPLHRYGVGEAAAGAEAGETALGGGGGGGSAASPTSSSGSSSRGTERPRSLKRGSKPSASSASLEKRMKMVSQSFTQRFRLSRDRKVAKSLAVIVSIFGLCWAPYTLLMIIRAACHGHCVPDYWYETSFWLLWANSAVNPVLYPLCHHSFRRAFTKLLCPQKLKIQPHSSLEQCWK
result_type: Ki (nM)
One number for each entry, in nM.

-- ask Consider the molecule Cc1cc(N2CC[C@H](N3CCC[C@@H]3C)C2)ccc1NC(=O)c1cc(F)ccc1C and give its measured Ki.
-- reply 2.5

---

Give pKi for every item shown.
biological target: Histamine H3 receptor (Rattus norvegicus); experiment: Displacement of [3H]N-alpha-methylhistamine from recombinant rat histamine H3 receptor transfected in CHO cell membranes after 1 hr by scintillation counting analysis
Sequence (Q9QYN8 whole entry): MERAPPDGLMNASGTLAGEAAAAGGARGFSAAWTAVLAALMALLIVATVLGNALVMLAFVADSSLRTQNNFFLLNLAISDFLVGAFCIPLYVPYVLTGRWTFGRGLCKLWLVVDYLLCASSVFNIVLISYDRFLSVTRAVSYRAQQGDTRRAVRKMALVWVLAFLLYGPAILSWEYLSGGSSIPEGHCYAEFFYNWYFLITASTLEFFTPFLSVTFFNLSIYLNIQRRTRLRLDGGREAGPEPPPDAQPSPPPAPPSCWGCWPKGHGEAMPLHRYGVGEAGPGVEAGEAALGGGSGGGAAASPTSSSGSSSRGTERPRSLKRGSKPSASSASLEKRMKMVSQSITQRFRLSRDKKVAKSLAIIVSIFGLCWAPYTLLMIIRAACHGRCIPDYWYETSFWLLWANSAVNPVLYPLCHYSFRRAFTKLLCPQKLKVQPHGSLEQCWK
One number for each entry, as −log10 of the molar value.

-- ask Consider the molecule Cc1cc(N2CC[C@@H](N3CCC[C@@H]3C)C2)ccc1NC(=O)c1cc(F)ccc1C and give its measured pKi.
-- reply 7.96

Hi! Can you tell me pKi for each of these molecules?
1. Cc1cc(N2CC[C@H](N3CCC[C@@H]3C)C2)ccc1NC(=O)c1cc(F)ccc1C
2. Cc1cc(N2CC[C@H](N3CCC[C@H]3C)C2)ccc1NC(=O)c1cc(F)ccc1C
3. Cc1cc(N2CC[C@@H](N3CCC[C@H]3C)C2)ccc1NC(=O)c1cc(F)ccc1C

-- reply
[8.52, 7.03, 7.13]

---

test: AUC (0 to infinity) in C57BL/6 mouse brain at 10 mg/kg, po; assay type: ADME, organism-based; design: time infinity, dose 10 mg/kg, route oral
result_type: AUC(0-inf) (ng·h/mL)
Give bare numbers, in ng·h/mL.

-- ask Consider the compound Cc1cc(N2CC[C@H](N3CCC[C@@H]3C)C2)ccc1NC(=O)c1cc(F)ccc1C and give its measured AUC(0-inf).
-- reply 18000

---

assay: Tmax in C57BL/6 mouse brain at 10 mg/kg, po; format: ADME, organism-based; parameters: dose 10 mg/kg, route oral
result_type: Tmax (h)
Answers are plain numbers, in h.

-- ask Consider the compound Cc1cc(N2CC[C@H](N3CCC[C@@H]3C)C2)ccc1NC(=O)c1cc(F)ccc1C and give its measured Tmax.
-- reply 1

---

assay: Cmax in C57BL/6 mouse plasma at 10 mg/kg, po; assay type: ADME, organism-based; design: dose 10 mg/kg, route oral
result_type: Cmax
Quick note: unit goes after the number.

-- ask Consider the compound Cc1cc(N2CC[C@H](N3CCC[C@@H]3C)C2)ccc1NC(=O)c1cc(F)ccc1C and give its measured Cmax.
-- reply 1310 ng/mL

---

experiment: Tmax in C57BL/6 mouse plasma at 2 mg/kg, iv; type: ADME, organism-based; set-up: dose 2 mg/kg, route intravenous
result_type: Tmax

-- ask Consider the compound Cc1cc(N2CC[C@H](N3CCC[C@@H]3C)C2)ccc1NC(=O)c1cc(F)ccc1C and give its measured Tmax.
-- reply 4.98 min

---

test: Solubility of the compound in PBS buffer at pH 7.4; type: physicochemical
Give solubility for every item shown.
Quick note: unit goes after the number.

Hi! Can you tell me solubility for each of these molecules?
1. Cc1cc(N2CC[C@@H](N3CCC[C@@H]3C)C2)ccc1NC(=O)c1cc(F)ccc1C
2. Cc1cc(N2CC[C@H](N3CCC[C@@H]3C)C2)ccc1NC(=O)c1cc(F)ccc1C

-- reply
1: 88.5 µg/mL; 2: 293 µg/mL

---

molecular target: Voltage-gated inwardly rectifying potassium channel KCNH2 (Homo sapiens, UniProt Q12809); test: Inhibition of human ERG transfected in CHO cells by patch clamp assay; assay type: cell-based
Sequence (Q12809 whole entry): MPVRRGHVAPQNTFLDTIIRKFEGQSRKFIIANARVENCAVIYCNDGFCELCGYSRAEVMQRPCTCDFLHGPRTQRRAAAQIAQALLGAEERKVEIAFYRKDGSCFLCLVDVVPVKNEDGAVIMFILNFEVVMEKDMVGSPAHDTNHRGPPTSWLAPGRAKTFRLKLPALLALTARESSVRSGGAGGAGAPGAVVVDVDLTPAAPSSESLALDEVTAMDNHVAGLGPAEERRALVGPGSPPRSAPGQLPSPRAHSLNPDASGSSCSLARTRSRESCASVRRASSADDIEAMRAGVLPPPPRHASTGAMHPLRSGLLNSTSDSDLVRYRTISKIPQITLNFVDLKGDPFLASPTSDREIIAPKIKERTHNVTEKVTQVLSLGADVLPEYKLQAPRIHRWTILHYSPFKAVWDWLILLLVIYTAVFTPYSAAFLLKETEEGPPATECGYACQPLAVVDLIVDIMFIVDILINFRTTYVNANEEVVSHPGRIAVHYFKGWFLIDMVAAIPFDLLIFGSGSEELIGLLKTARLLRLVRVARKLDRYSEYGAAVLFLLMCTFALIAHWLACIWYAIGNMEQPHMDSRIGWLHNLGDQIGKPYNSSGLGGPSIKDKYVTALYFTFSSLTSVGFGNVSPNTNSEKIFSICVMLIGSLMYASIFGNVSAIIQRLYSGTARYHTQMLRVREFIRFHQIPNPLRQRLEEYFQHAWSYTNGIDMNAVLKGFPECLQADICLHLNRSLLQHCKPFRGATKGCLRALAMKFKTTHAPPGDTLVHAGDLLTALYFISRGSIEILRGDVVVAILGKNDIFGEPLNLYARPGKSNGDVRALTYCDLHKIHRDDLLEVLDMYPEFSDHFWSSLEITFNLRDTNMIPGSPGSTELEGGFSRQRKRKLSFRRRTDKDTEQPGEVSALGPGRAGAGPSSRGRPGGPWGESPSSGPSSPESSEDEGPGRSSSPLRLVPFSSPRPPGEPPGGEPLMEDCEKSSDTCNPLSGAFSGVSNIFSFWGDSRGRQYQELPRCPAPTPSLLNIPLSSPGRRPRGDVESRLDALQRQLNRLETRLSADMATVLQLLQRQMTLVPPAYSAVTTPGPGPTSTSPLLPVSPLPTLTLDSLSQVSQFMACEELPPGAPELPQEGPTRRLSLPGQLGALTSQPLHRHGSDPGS
Give pIC50 for every item shown.
One number for each entry, as −log10 of the molar value.

-- ask Consider the compound Cc1cc(N2CC[C@@H](N3CCC[C@@H]3C)C2)ccc1NC(=O)c1cc(F)ccc1C and give its measured pIC50.
-- reply 5.74

Now examine the next entry.
-- ask Consider the compound Cc1cc(N2CC[C@H](N3CCC[C@@H]3C)C2)ccc1NC(=O)c1cc(F)ccc1C and give its measured pIC50.
-- reply 5.96
